Measured melting point accompanies every entry in the list below.

The compound identified as CC(C)c1nn(-c2ccc(Cl)cn2)cc1CCCO registered its melting point at 93 to 95 °C

More entries:
The compound identified as CCOCc1nc2c(cc(C)n3nnnc23)n1CC(C)C registered its melting point at 158 to 160 °C

The compound identified as CCCN1NCc2c(C3C(=O)Nc4ccc(Cl)cc43)ncnc21 (centres undefined) registered its melting point at 293 to 297 °C

---

measured endpoint: melting point

Observe how each entry below is paired with its result.
The molecule identified as CCCCc1c(/C=C/C(=O)O)ccc2c(OC)cccc12 registered its melting point at 202 to 204 °C

The molecule identified as Cc1nc2ccc(C(=O)NS(=O)(=O)c3ccccc3)nc2n1Cc1ccc(COc2ccccc2)cc1Cl registered its melting point at 203 to 205 °C

The molecule identified as CCCCCCCCCCCCn1nnnc1C(C(=O)Nc1c(C(C)C)cccc1C(C)C)c1ccccc1 (centres undefined) registered its melting point at 113 to 115 °C

The molecule identified as COc1ccc(CC(CSC(C)=O)C(=O)Nc2cccc(C(=O)O)c2)cc1 (centres undefined) registered its melting point at 124 to 126 °C

The molecule identified as COc1ccccc1C(=O)c1cc2ccccc2[nH]1 registered its melting point at 129 to 130 °C

The molecule identified as Cc1c(C)c(N2Cc3cc(Cl)c(Cl)cc3C2)c(C)c2c1OC(C)(C)C2c1ccc(C(C)C)cc1 (centres undefined) registered its melting point at 148 to 150 °C

The molecule identified as CO[C@H]1[C@H](N2CCCC2)c2cc(C#N)ccc2OC1(C)C (relative stereo) registered its melting point at 108 to 109 °C

The molecule identified as O=Cc1cc(-c2ncc(C(F)(F)F)cc2Cl)ccc1Cl registered its melting point at 94 °C

Let us move to another entry and its melting point.
The molecule identified as CCCOc1ccc(S(=O)(=O)N2CCN(CC)CC2)cc1C(=O)O registered its melting point at 143 to 145 °C
